Test system: BDF1 mice, B16 melanoma ip, median survival T/C
assay.method.text: NCI In Vivo Anticancer Drug Screen. Data for tumor model B16 Melanoma (intraperitoneal) in B6D2F1 (BDF1) mice
condition.summary: endpoint: median survival time; dose: 3.12 mg/kg/injection; schedule: Q01DX009 (ip); vehicle: Klucel (hydroxypropylcellulose) (HPC); higher = longer survival
Inconclusive results and toxic doses are left out.
What T/C was measured for each of the following?

Qu. Report T/C for "S=c1[nH]c2ccccc2[nH]1"
Ans. 90 % of control

Qu. Report T/C for COC(CBr)c1ccccc1 (stereo unspecified)
Ans. 102 % of control

Qu. Report T/C for "C[C@@H]1C[C@H]2[C@@H]3CCC4=CC(=O)C=C[C@]4(C)[C@@]3(F)[C@@H](O)C[C@]2(C)[C@@]1(O)C(=O)CO"
Ans. 114 % of control

Qu. Report T/C for "O=C1CN=C(c2ccccc2)c2cc([N+](=O)[O-])ccc2N1"
Ans. 86 % of control

Qu. Report T/C for CCN(CC)C(=O)C1CN2CCc3cc(OC)c(OC)cc3C2CC1OC(C)=O (stereo unspecified)
Ans. 104 % of control

Qu. Report T/C for "O=c1oc2c3ccccc3c3ccccc3c2o1"
Ans. 96 % of control

Qu. Report T/C for CCC[CH2][Sn]1([CH2]CCC)[O]C2C(CO)OC(n3ccc(N)nc3=O)C2[O]1 (stereo unspecified)
Ans. 116 % of control

Qu. Report T/C for CCCCNC(=O)C1C=C2c3cccc4[nH]cc(c34)CC2N(C)C1 (stereo unspecified)
Ans. 93 % of control

Qu. Report T/C for "NC(CCl)=NCC12CC3CC(CC(C3)C1)C2"
Ans. 100 % of control

Qu. Report T/C for COc1ccc(C(Nc2ccccc2)C(=O)c2ccccc2)cc1 (stereo unspecified)
Ans. 90 % of control

Qu. Report T/C for "Nc1nc(-c2ccccc2N=NN2CCN(N=Nc3ccccc3-c3nc(N)c4ccccc4n3)CC2)nc2ccccc12"
Ans. 95 % of control

###

Test system: BDF1 mice, B16 melanoma ip, median survival T/C
assay.method.text: NCI In Vivo Anticancer Drug Screen. Data for tumor model B16 Melanoma (intraperitoneal) in B6D2F1 (BDF1) mice
condition.summary: endpoint: median survival time; dose: 5.0 mg/kg/injection; schedule: Q01DX009 (ip); vehicle: saline
Inconclusive results and toxic doses are left out. Rule for the calls: active = survival T/C of 150% or more; inactive = T/C below 125% in these data.
The reply should be one of these categories: active, inactive

Qu. For this molecule, state the assay outcome: "Nc1ccc2nc3ccc(=O)cc-3n(-c3ccccc3)c2c1"
Ans. inactive

Qu. For this molecule, state the assay outcome: NC(=S)c1cn(C2OC(CO)C(O)C2O)c2ncnc(N)c12 (configuration not stated)
Ans. inactive

Qu. For this molecule, state the assay outcome: "O=C1C(N2CCCCC2)=C(N2CC2)C(=O)C(N2CCCCC2)=C1N1CC1"
Ans. inactive

Qu. For this molecule, state the assay outcome: "CC[n+]1ccc(Nc2ccc(/C=C/c3ccc4cc(Nc5cc[n+](CC)cc5)ccc4[n+]3CC)cc2)cc1"
Ans. inactive

Qu. For this molecule, state the assay outcome: O=NN(CCCl)C(=O)NC1[C@H](O)CCC[C@@H]1O (some centres not stated)
Ans. active

Qu. For this molecule, state the assay outcome: CC1C(=O)OCC2=CCN3CCC(OC(=O)C(C)C1(C)O)C23 (configuration not stated)
Ans. inactive

Qu. For this molecule, state the assay outcome: "C=CCN(CC=C)C(=O)CCN1CC1"
Ans. inactive

###

Tested on: BDF1 mice, B16 melanoma ip, median survival T/C
assay.method.text: NCI In Vivo Anticancer Drug Screen. Data for tumor model B16 Melanoma (intraperitoneal) in B6D2F1 (BDF1) mice
condition.summary: endpoint: median survival time; dose: 50.0 mg/kg/injection; schedule: Q01DX009 (ip); vehicle: Klucel (hydroxypropylcellulose) (HPC); higher = longer survival
Inconclusive results and toxic doses are left out.
test.readout: T/C

Qu. Report T/C for "Nc1c(Br)cc2c(c1Br)Cc1cc(Cl)ccc1-2"
Ans. 94 % of control

Qu. Report T/C for CCN(CC)C(=O)C1CN2CCc3cc(OC)c(OC)cc3C2CC1OC(C)=O (configuration not stated)
Ans. 89 % of control

Qu. Report T/C for "Cc1c(Cl)cccc1N=Cc1ccccc1O"
Ans. 106 % of control

Qu. Report T/C for "COc1cc2nc3cc([N+](=O)[O-])ccc3c(Cl)c2cc1OC"
Ans. 103 % of control

Qu. Report T/C for "CC(C)(C)CC(N)=O"
Ans. 112 % of control

Qu. Report T/C for "Cc1nn(-c2ccccc2)c(N)c1C#N"
Ans. 93 % of control

Qu. Report T/C for CC1NC(=O)COC1c1ccccc1 (configuration not stated)
Ans. 102 % of control

Qu. Report T/C for "C1=NC(c2ccccn2)=NNC(c2ccccn2)=C1c1ccccc1"
Ans. 101 % of control

Qu. Report T/C for "CC(=O)Nc1cccc(OCCCOc2cccc(C(=N)N)c2)c1"
Ans. 102 % of control

Qu. Report T/C for "O=C1CN=C(c2ccccc2)c2cc([N+](=O)[O-])ccc2N1"
Ans. 99 % of control

Qu. Report T/C for "CC(=O)Nc1ccc([I+]c2ccc([N+](=O)[O-])cc2)cc1"
Ans. 104 % of control

Qu. Report T/C for "COc1ccc(NC(=O)Nc2ccc(C)cc2C)cc1"
Ans. 101 % of control

###

Tested on: BDF1 mice, B16 melanoma ip, median survival T/C
assay.method.text: NCI In Vivo Anticancer Drug Screen. Data for tumor model B16 Melanoma (intraperitoneal) in B6D2F1 (BDF1) mice
condition.summary: endpoint: median survival time; dose: 100.0 mg/kg/injection; schedule: Q04DX003 (ip); vehicle: Klucel (hydroxypropylcellulose) (HPC); higher = longer survival
Toxic doses and inconclusive results are not listed.
What T/C was measured for each of the following?

Qu. Report T/C for "C[Si](C)(C)c1c(F)c(F)cc(F)c1F"
Ans. 98 % of control

Qu. Report T/C for "Cc1ccc(S(=O)(=O)N2CCCC(=O)c3ccc(Cl)cc32)cc1"
Ans. 103 % of control

Qu. Report T/C for CCOC(=O)C1CCCN(S(=O)(=O)c2ccc(C)cc2)c2ccccc2C1=O (stereo not given)
Ans. 96 % of control

Qu. Report T/C for "Cc1cc(C)c(NC(=O)Nc2ccccc2C)c(C)c1"
Ans. 90 % of control

Qu. Report T/C for "COC(=O)/C=C/NC(=O)c1ccccc1C(=O)OC"
Ans. 86 % of control

Qu. Report T/C for "CCCCCCCCC(=O)CCC"
Ans. 88 % of control

Qu. Report T/C for "CCOC(=O)C(=Cc1ccccc1Cl)C(=O)OCC"
Ans. 107 % of control

Qu. Report T/C for "CCCCCCCCCCCCCCCC#N"
Ans. 92 % of control

Qu. Report T/C for "CCOc1cc(C2=NNc3n[nH]c(=S)n3N2)ccc1O"
Ans. 122 % of control

Qu. Report T/C for COc1ccc(C2CCC(=O)CC2C(=O)O)cc1 (stereo not given)
Ans. 94 % of control

Qu. Report T/C for "Cc1cc(=O)n2c3c(cc(C#N)cc13)OC2"
Ans. 92 % of control

Qu. Report T/C for "COc1ccc(S(=O)O)cc1NC(C)=O"
Ans. 95 % of control

Qu. Report T/C for "Cc1cc(Cl)ccc1NC(=O)Nc1ccc(Cl)c(Cl)c1"
Ans. 95 % of control

Qu. Report T/C for "O=C(O)c1ccc(SSc2ccc(C(=O)O)cn2)nc1"
Ans. 93 % of control

Qu. Report T/C for "Cc1cc(=O)n(C)c2ccccc12"
Ans. 102 % of control

Qu. Report T/C for C=CCOCC(O)CN1CCC(C)CC1 (stereo not given)
Ans. 107 % of control

Qu. Report T/C for "O=C(N/N=C/c1ccc(N(CCCl)CCCl)cc1)c1ccc(C(=O)N/N=C/c2ccc(N(CCCl)CCCl)cc2)cc1"
Ans. 97 % of control

Qu. Report T/C for "CCOC(=O)Nc1cccc2ccccc12"
Ans. 102 % of control

Qu. Report T/C for "Cc1ccc2nc3c4ccccc4c4ccccc4c3nc2c1"
Ans. 102 % of control

Qu. Report T/C for "c1ccc(C(C2=NCCN2)c2ccccc2)cc1"
Ans. 95 % of control

###

Tested on: BDF1 mice, B16 melanoma ip, median survival T/C
assay.method.text: NCI In Vivo Anticancer Drug Screen. Data for tumor model B16 Melanoma (intraperitoneal) in B6D2F1 (BDF1) mice
condition.summary: endpoint: median survival time; dose: 0.12 mg/kg/injection; schedule: Q01DX009 (ip); vehicle: saline
Inconclusive results and toxic doses are left out. Rule for the calls: active = survival T/C of 150% or more; inactive = T/C below 125% in these data.
The reply should be one of these categories: T = active, F = inactive

Qu. For this molecule, state the assay outcome: COc1cccc2c1C(=O)c1c(O)c3c(c(O)c1C2=O)C[C@@](O)(C(=O)CO)C[C@@H]3OC1CC(N)C(O)C(C)O1 (some centres undefined)
Ans. T

Qu. For this molecule, state the assay outcome: "COc1cc2c(c(OC)c1OC)-c1ccc(OC)c(=O)cc1[C@@H](NC(C)=O)CC2"
Ans. F

Qu. For this molecule, state the assay outcome: COc1cccc2c1C(=O)c1c(O)c3c(c(O)c1C2=O)CC(O)(C(C)=O)CC3O (centres undefined)
Ans. F

Qu. For this molecule, state the assay outcome: CO[C@H](C(=O)[C@@H](O)[C@@H](C)O)[C@@H]1Cc2cc3cc(OC4CC(OC5CC(O)C(O)C(C)O5)C(O)C(C)O4)c(C)c(O)c3c(O)c2C(=O)[C@H]1OC1CC(OC2CC(OC3CC(C)(O)C(O)C(C)O3)C(O)C(C)O2)C(O)C(C)O1 (some centres undefined)
Ans. F
